tested on: UO-31; assay: NCI tumour cell line growth inhibition, 48 h
The source made the active and inactive calls. Cut-off read from the data, not from the text of the source: active = GI50 up to about 1.1 µM and inactive = higher.
readoutKind: GI50

1) O=C1C2=C(C3=NCCc4c[nH]c1c43)c1c(Br)cc(Br)cc1CCN2 :: 6.22 µM (inactive)
2) COc1c(C)cc2c(C(C)C)c(O)c(O)c(C=O)c2c1O :: 31.3 µM (inactive)
3) CC1=CC(=O)NP(=O)(C23CC4CC(CC(C4)C2)C3)N1 (stereo not given) :: > 100 µM (inactive)
4) O=C1Nc2ccccc2C(=O)/C1=C/NC(=S)NCc1ccccc1 :: > 100 µM (inactive)
5) Cc1ccc(C)n1-n1c(Cc2ccc(Cl)cc2)n[nH]c1=O :: 58.7 µM (inactive)
6) CC(C)COC(=O)N1N=NC2C3OC(CC3=O)C21 (stereo not given) :: > 100 µM (inactive)
7) COC(=O)C1CC=C(SC(=O)c2ccccc2)N1C(=O)c1ccccc1 (stereo not given) :: > 100 µM (inactive)
8) C[C@@H]1[C@H](c2ccccc2)O[B-]2(c3ccc(Br)cc3)OC(=O)C[N+]12C (stereo not given in full) :: 66.5 µM (inactive)
9) COc1c2occc2c(OC)c2c(=O)c(S(=O)(=O)NC(=O)Nc3ccc(Cl)cc3)coc12 :: > 10 µM (inactive)
10) N#Cc1c(-c2ccccc2)c(/C=N/c2ccc(Cl)cc2)c(=O)n2c1[nH]c1ccccc12 :: 34.4 µM (inactive)

---

test system: SW-620; test: NCI tumour cell line growth inhibition, 48 h
The source made the active and inactive calls. No stated cut-off is given here; in the data, active = GI50 up to about 1.1 µM and inactive = higher.
Classes used: class 1 (active), class 0 (inactive)

1) O=C(O)CCc1coc2ccc(O)cc12 :: class 0
2) O=C(Cc1ccc(Cl)c(Cl)c1)N(CCc1ccc(Cl)c(Cl)c1)CCN1CCCC1 :: class 0
3) COc1ccc(C(O)c2ccc3c(c2)OCO3)cc1 (stereo not drawn) :: class 0
4) CC(=O)C1C(=O)C(=O)N(c2ccccc2)C1=O (stereo not drawn) :: class 0
5) Cn1c(=O)c2nc(N3CCOCC3)cnc2n(C)c1=O :: class 0
6) Nc1nc(N)c2c(n1)NC(=O)c1c(c3ccccc3n1Cc1ccc(Cl)cc1)C2 :: class 0
7) c1ccc(-c2cc(-c3cccs3)c(-c3cccs3)o2)cc1 :: class 0
8) CCCC(=O)N/S(=N/S(=O)(=O)c1ccc(Cl)cc1)C(Cl)(Cl)Cl (stereo not drawn) :: class 0
9) COc1ccc(C(=O)Cn2c(C(C)=O)nc3ccccc32)cc1 :: class 0
10) c1sc(NC2=NCCO2)c2c1CCCC2 :: class 0
11) CSC(=N\c1ccccc1)/N=C(\SCc1ccccc1)N(C)C :: class 1
12) O=C1CCCCC[C@]12SC[C@H]1CON=C12 :: class 0
13) C[n+]1c(Cl)cn2c3nc4ccccc4nc3c([O-])c(C#N)c21 :: class 0

---

system: LOX IMVI; assay: NCI tumour cell line growth inhibition, 48 h
Calls of active or inactive are those of the source. Rule as the data show it: active = GI50 up to about 1.1 µM and inactive = higher. Where a SMILES comes first, the peptide text is derived from it. The star is where a group is joined. ONb = O=[N+]([O-])c1ccc(CO*)cc1; Boc = CC(C)(C)OC(=O)*
Classes used: active, inactive

1. CO[C@H]1C[C@@H]2CC[C@@H](C)[C@@](O)(O2)C(=O)C(=O)N2CCCC[C@H]2C(=O)O[C@H]([C@H](C)C[C@@H]2CC[C@@H](O)[C@H](OC)C2)CC(=O)[C@H](C)C=C(C)[C@@H](O)[C@@H](OC)C(=O)[C@H](C)C[C@H](C)/C=C/C=C/C=C1C :: active
2. CC(C)CC(NC(=O)OC(C)(C)C)C(=O)NC(CCC(=O)OCc1ccc([N+](=O)[O-])cc1)C(=O)OCc1ccc([N+](=O)[O-])cc1 (stereo not drawn) (Boc-Leu-Glu(ONb)-ONb; configuration not given here) :: inactive
3. O=C(O)CNS(=O)(=O)c1ccc(NC(=O)Nc2ccccc2)cc1 :: inactive
4. C#CCSc1cnc2ccccc2c1Sc1c[nH]c2ccccc2c1=O :: inactive
5. NC1CC(N)c2c(Br)sc(Br)c21 (configuration not stated) :: inactive
6. COc1cc2c(c(OC)c1OC)-c1ccc(SC)c(=O)cc1C(NC(=O)c1ccccc1)CC2 (configuration not stated) :: active
7. O=C1OC(O)C(Oc2c(Cl)cccc2Cl)=C1Cl (configuration not stated) :: inactive
